Reported viability at 28.5 h, 10 µM by item:
# test_details: in vitro
# applied_conditions: human, hela cells, % viability
Just the number please, in %, no unit attached.

Check out these entries, answers already filled in.
COC[C@H]1CCCN1C(=O)CC[C@H]1CNC(=O)[C@@H]2[C@@H](CCN2C2CCCCC2)N1C [CBK289039] ... 89.7
COCCc1noc(CC2CCN(c3cc(C)ncc3C#N)CC2)n1 [CBK304092] ... 90.4

Then there is this compound:
Prompt line: Kindly indicate its recorded viability at 28.5 h, 10 µM. Item: CN1C(=O)c2ccccc2C(=O)[C@@]2(C)CN(C(=O)C3CCCC3)C[C@@H]12 [CBK284570]
Response line: 91.5

###

# test_details: in vitro
# applied_conditions: human, hela cells, % viability
Reported viability at 28.5 h, 10 µM by item:

Check out these entries, answers already filled in.
Cc1ccc(S(=O)(=O)N2C[C@H]3C[C@H](NC(=O)C4CC4C)[C@H]3C2)cc1 (stereo partly drawn) ... 108%
Cn1cncc1CN(CCc1ccccc1)Cc1ccncc1 ... 87.4%

Prompt line: Kindly indicate its recorded viability at 28.5 h, 10 µM. Item: "CC(=O)N1CC[C@H]2NC(=O)CNC(=O)C3(CCCC[C@H]2C1)CCN(C(=O)CCn1ccnc1)CC3"
Response line: 111%

###

# test_details: in vitro
# applied_conditions: human, hela cells, % viability
reported_metric: viability at 28.5 h, 10 µM
Provide a numeric answer, followed by its unit.

Check out these entries, answers already filled in.
COc1ccc(C(=O)Nc2nc3ccc(OC)cc3s2)cc1 ... 96.5%
CC(C)(C)c1ccc([S+]([O-])c2cncc(N3CCNCC3)n2)cc1 (stereo not drawn) [CBK051434C] ... 88.4%

Prompt line: Kindly indicate its recorded viability at 28.5 h, 10 µM. Item: "O=C(O)CCn1c(=O)cc(C(F)F)c2cn(Cc3ccccc3)nc21"
Response line: 91.3%

Prompt line: Kindly indicate its recorded viability at 28.5 h, 10 µM. Item: "NC1=NNC2=C(c3ccc(Cl)cc3Cl)NNN12"
Response line: 86.4%

Prompt line: Kindly indicate its recorded viability at 28.5 h, 10 µM. Item: "Cc1cccnc1C1(O)CCN(C(=O)Cc2ccccc2F)CC1"
Response line: 97.8%

###

# test_details: in vitro
# applied_conditions: human, hela cells, % viability
Reported viability at 28.5 h, 10 µM by item:
Just the number please, in %, no unit attached.

Check out these entries, answers already filled in.
O=C(Cc1ccc(F)cc1)N1CCC(n2cnc3cccnc32)CC1 ... 91.1
Cc1nc(Cl)c(C(=O)NCCc2ccc(S(=O)(=O)NC(=O)NC3CCCCC3)cc2)nc1C ... 91.3
COc1cc(C(=O)Nc2ccc3oc(-c4cccnc4)nc3c2)ccc1OCc1ccc(Cl)cc1 ... 87.9

Then there is this compound:
Prompt line: Kindly indicate its recorded viability at 28.5 h, 10 µM. Item: "O=C(Nc1ccc(/C=C/c2ccccc2)cc1)c1ccc(COc2ccccc2)o1"
Response line: 91.3

###

# test_details: in vitro
# applied_conditions: human, hela cells, % viability
reported_metric: viability at 28.5 h, 10 µM

O=C(Nc1ccc(Cl)cc1)N1CCCC(CO)C1 (stereo not drawn) ... 112%
C=Cn1ncc(CN2C3CCC2CC(O)(c2ccc(F)cc2)C3)c1C (stereo not drawn) ... 104%

Then there is this compound:
Prompt line: Kindly indicate its recorded viability at 28.5 h, 10 µM. Item: COC(=O)C1C(=O)NC(SCC(=O)Nc2cccc(Cl)c2C)=C(C#N)C1c1ccccc1F (stereo not drawn)
Response line: 94.9%

###

# test_details: in vitro
# applied_conditions: human, hela cells, % viability
Reported viability at 28.5 h, 10 µM by item:
Just the number please, in %, no unit attached.

Check out these entries, answers already filled in.
CC(C)(C)OC(=O)N1CCC(CNS(=O)(=O)c2cccc3cccnc23)CC1 ... 97.1
CN(C)CCCNc1c(N)c(=O)oc2ccccc12 ... 94.3
CCc1nnc(SCC(=O)N2c3ccccc3Sc3ccccc32)[nH]1 ... 110
COc1cc2oc(=O)c(CC(=O)N[C@@H](CC(C)C)C(=O)O)c(C)c2cc1Cl ... 104
Oc1ccc2c(c1)C(O)CC1(CCN(CC(O)c3ccc(-c4ccccc4)cc3)CC1)O2 (stereo not drawn) ... 91.3

Prompt line: Kindly indicate its recorded viability at 28.5 h, 10 µM. Item: "O=C(NC1CC1)[C@@H]1C=CCN1S(=O)(=O)c1ccc(F)cc1"
Response line: 92.5

###

# test_details: in vitro
# Design: Viability of infected HeLa host cells, resazurin conversion, bulk resorufin fluorescence relative to DMSO
# applied_conditions: human, hela cells; bulk resorufin, mean of 3
reported_metric: viability at 28.5 h, 0.111 µM (%)
Just the number please, in %, no unit attached.

Check out these entries, answers already filled in.
O=C(N/N=C\c1ccc([N+](=O)[O-])o1)c1nc(-c2ccccc2)cc(-c2ccccc2)n1 ... 92.2
O=C(NCCCn1ccnc1)c1cc(-c2cccc(Br)c2)nc2ccccc12 [c50e] ... 90.6
O=C(c1ccc(-c2ccc(F)cc2)o1)N1C[C@H]2CC[C@](O)(c3ccc(F)cc3)[C@H]2C1 ... 95.5

Prompt line: Kindly indicate its recorded viability at 28.5 h, 0.111 µM. Item: Cc1cccc(-c2ccc(CC3(C(N)=O)CCN(C(=O)CCc4ccccc4)CC3)cc2)c1 [c38e]
Response line: 98.7

Prompt line: Kindly indicate its recorded viability at 28.5 h, 0.111 µM. Item: COc1ccc(CC(=O)N2CCCC(c3nc(C)c4c(n3)N(CC3CC3)CCC4)C2)cc1 (stereo not shown) [c52e]
Response line: 91.4

Prompt line: Kindly indicate its recorded viability at 28.5 h, 0.111 µM. Item: Fc1cc(Br)c(CNCc2ncc[nH]2)c(N2CCCCC2)c1F [c31e]
Response line: 100

Prompt line: Kindly indicate its recorded viability at 28.5 h, 0.111 µM. Item: C1=C(CCNCCc2ccccc2)c2ccccc2C12CCCC2 [c51e]
Response line: 97.8

###

# test_details: in vitro
# applied_conditions: human, hela cells, % viability
Lab note: anything with viability at 28.5 h, 10 µM below 90% is marked MET; values at 90% or higher are marked NOT MET.

Cc1cc([N+](=O)[O-])nn1CCCC(=O)Nc1cccc(O)c1 [CBK268747] ... MET
c1cncc(-c2cncc(NCC3CCOCC3)n2)c1 [CBK037195] ... NOT MET

We now examine a further compound.
Prompt line: Say whether its viability at 28.5 h, 10 µM is strictly beneath 90%. Entry: CC(C)(CN)c1ccccc1 [CBK012106C]
Response line: MET

###

# test_details: in vitro
# applied_conditions: human, hela cells, % viability
Reported viability at 28.5 h, 10 µM by item:
Just the number please, in %, no unit attached.

Prompt line: Kindly indicate its recorded viability at 28.5 h, 10 µM. Item: "CN(C)c1cccc(-c2cncc(NCc3ccco3)n2)c1"
Response line: 106

Prompt line: Kindly indicate its recorded viability at 28.5 h, 10 µM. Item: COc1ccc(-c2cc[nH]n2)c(OC)c1OC [CBK022957C]
Response line: 82

Prompt line: Kindly indicate its recorded viability at 28.5 h, 10 µM. Item: "Cc1[nH]c2ccccc2c1C(=O)CSc1nnc(Cc2cccs2)n1C"
Response line: 105

Prompt line: Kindly indicate its recorded viability at 28.5 h, 10 µM. Item: "Cc1cccnc1C1(O)CCN(C(=O)Cc2ccccc2Cl)CC1"
Response line: 98.7

Prompt line: Kindly indicate its recorded viability at 28.5 h, 10 µM. Item: "CC(=O)Nc1cccc(NCc2csc(C3CCCC3)n2)c1"
Response line: 110

Prompt line: Kindly indicate its recorded viability at 28.5 h, 10 µM. Item: "CC(C)(C)OC(=O)N1CCC(Oc2nccnc2Cl)CC1"
Response line: 89.8

Prompt line: Kindly indicate its recorded viability at 28.5 h, 10 µM. Item: Cc1nn(C(C)CC(=O)NCc2ccco2)c(C)c1Br (centres unmarked)
Response line: 89.5

###

# test_details: in vitro
# applied_conditions: human, hela cells, % viability
reported_metric: viability at 28.5 h, 10 µM
Provide a numeric answer, followed by its unit.

Check out these entries, answers already filled in.
O=C(Nc1ccc2c(c1)OCO2)c1nccnc1-c1ccc(COc2ccccc2)cc1 ... 109%
Cc1c(NC(=O)CSc2nnc3c4ccccc4n(C(C)C)c3n2)c(=O)n(-c2ccccc2)n1C ... 105%

Prompt line: Kindly indicate its recorded viability at 28.5 h, 10 µM. Item: "O=C(O)c1cc(S(=O)(=O)N2CCOCC2)c(Cl)cc1NC1CCCCC1"
Response line: 97.8%

###

# test_details: in vitro
# applied_conditions: human, hela cells, % viability
reported_metric: viability at 28.5 h, 10 µM

Cc1cc(C)n(CCCNC(=O)N2CCC(c3nccs3)CC2)n1 ... 91.9%

Prompt line: Kindly indicate its recorded viability at 28.5 h, 10 µM. Item: "Cc1nc2c(OCc3ccc(C#N)cc3)cccn2c1N(C)Cc1cccs1"
Response line: 92%

Prompt line: Kindly indicate its recorded viability at 28.5 h, 10 µM. Item: "CCCC/C=C/c1cncc(N2CCN(C(=O)c3ccco3)CC2)n1"
Response line: 91.3%
